ASSAY SYSTEM: KRAS-G13D (Homo sapiens, UniProt P01116, G13D)
Construct: N-terminal biotin-acceptor peptide […]
Sequence (P01116 with tags, fused parts or gaps isoform P01116-2 G13D): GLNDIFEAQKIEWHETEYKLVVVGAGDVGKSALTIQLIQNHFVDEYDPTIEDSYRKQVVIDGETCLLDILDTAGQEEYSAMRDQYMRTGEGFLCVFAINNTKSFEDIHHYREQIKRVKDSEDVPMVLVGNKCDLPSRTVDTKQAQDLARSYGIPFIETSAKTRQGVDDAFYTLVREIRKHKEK
EXPERIMENTAL PROTOCOL: SOS-catalyzed nucleotide exchange assay (Procedure A, TR-FRET)
ASSAY CONTEXT: 60 min preincubation, GTP, read-out: KRAS G13D GNE IC50
Answer each item with its documented IC50.
Remember to follow the number with its unit.

stdin: # IC50 lookup, item Cc1cc2[nH]ncc2c(-c2c(F)cc3c(N4CCCOCC4)nc(OC[C@@]45CCCN4C[C@H](F)C5)nc3c2F)c1C(F)(F)F
stdout: 365 nM

stdin: Now the compound CC1CN(c2nc(OC[C@@]34CCCN3C[C@H](F)C4)nc3c(F)c(-c4ccc(F)c5sc(N)c(C#N)c45)c(Cl)cc23)CCCO1 (stereo partly drawn)
stdout: 8.74 nM

stdin: Now the compound CC(C)NC[C@@]1(COc2nc(N3CCCOCC3)c3cc(Cl)c(-c4ccc(F)c5sc(N)c(C#N)c45)c(F)c3n2)CC1(F)F
stdout: 59.4 nM

stdin: Now the compound CC1COCCN(c2nc(OC[C@@]34CCCN3C[C@H](F)C4)nc3c(F)c(-c4ccc(F)c5sc(N)c(C#N)c45)c(Cl)cc23)C1 (stereo partly drawn)
stdout: 12.8 nM

stdin: Now the compound CC1(NC[C@@]2(COc3nc(N4CCCOCC4)c4cc(Cl)c(-c5ccc(F)c6sc(N)c(C#N)c56)c(F)c4n3)CC2(F)F)CC1
stdout: 846 nM

stdin: Now the compound C[C@H]1CCOCCN1c1nc(OC[C@]2(CN(C)C)CC2(F)F)nc2c(F)c(-c3ccc(F)c4sc(N)c(C#N)c34)ncc12
stdout: 44.8 nM

Origin of the recorded values: patent US20260083750A1
